- Method description: Cytotoxicity against human Caco-2 cells assessed as growth inhibition at 10 uM relative to control
- Format: toxicity, cell-based
Label rule, in plain words: inhibition at 10 µM of 9% and up is t, under 9% is f.

OCc1nc2c(s1)c(-c1ccc(O)cc1)c(O)c1oc3cc(O)c(O)cc3c12	f
Oc1ccc(-c2c(O)c(O)c(-c3ccc(O)c(O)c3)c3ncsc23)cc1	t
Nc1nc2c(s1)=C(c1ccc(O)cc1)C(=O)C(=O)C=2c1ccc(O)cc1	f

Consider now this further molecule.
Item CCOC(=O)c1nc2c(s1)c(-c1ccc(O)cc1)c(O)c1oc3cc(O)c(O)cc3c12 with inhibition at 10 µM of 9% or above?
t

====

- Method description: Cytotoxicity against human Caco-2 cells assessed as growth inhibition at 10 uM relative to control
- Assay type: toxicity, cell-based
Label rule, in plain words: inhibition at 10 µM of 10% and up is class 1, under 10% is class 0.

Worked cases, answers included:
Nc1nc2c(s1)c(-c1ccc(O)cc1)c(O)c1oc3cc(O)c(O)cc3c12	class 1
OCc1nc2c(-c3ccc(O)c(O)c3)c(O)c(O)c(-c3ccc(O)cc3)c2s1	class 1
CCOC(=O)c1nc2c(-c3ccc(O)cc3)c(O)c(O)c(-c3ccc(O)cc3)c2s1	class 0
OCc1nc2c(-c3ccc(O)cc3)c(O)c(O)c(-c3ccc(O)cc3)c2s1	class 1
COC(=O)c1nc2c(-c3ccc(O)cc3)c(O)c(O)c(-c3ccc(O)cc3)c2s1	class 1

Item Oc1ccc(-c2c(O)c(O)c(-c3ccc(O)cc3)c3scnc23)cc1 with inhibition at 10 µM of 10% or above?
class 0

Item CCOC(=O)c1nc2c(-c3ccc(O)c(O)c3)c(O)c(O)c(-c3ccc(O)cc3)c2s1 with inhibition at 10 µM of 10% or above?
class 1

====

- System under test: Alpha-glucosidase (Saccharomyces cerevisiae S288c, UniProt P53341+P38158+P07265)
- Method description: Inhibition of Saccharomyces cerevisiae alpha-glucosidase using pNPG as substrate preincubated with compound for 15 mins followed by substrate addition measured after 30 mins by absorbance based microplate reader
- Format: protein assay
# log10 IC50 per entry
Units before log transform: nM; reported quantity: IC50; transform: log10.

For orientation, consider the following solved cases.
COC(=O)c1nc2c(s1)c(-c1ccc(O)cc1)c(O)c1oc3cc(O)c(O)cc3c12	4.02
COC(=O)c1nc2c(-c3ccc(O)c(O)c3)c(O)c(O)c(-c3ccc(O)cc3)c2s1	3.34
Nc1nc2c(s1)=C(c1ccc(O)cc1)C(=O)C(=O)C=2c1ccc(O)cc1	3.23
COC(=O)c1nc2c(-c3ccc(O)cc3)c(O)c(O)c(-c3ccc(O)cc3)c2s1	3.08
CCOC(=O)c1nc2c(s1)c(-c1ccc(O)cc1)c(O)c1oc3cc(O)c(O)cc3c12	3.36

Please give the measured log10 IC50 for this compound: Oc1ccc(-c2c(O)c(O)c(-c3ccc(O)cc3)c3scnc23)cc1
3.28

Please give the measured log10 IC50 for this compound: OCc1nc2c(-c3ccc(O)c(O)c3)c(O)c(O)c(-c3ccc(O)cc3)c2s1
2.97

====

- System under test: Tyrosine-protein phosphatase non-receptor type 1 (Homo sapiens, UniProt P18031)
- Sequence (P18031 whole entry): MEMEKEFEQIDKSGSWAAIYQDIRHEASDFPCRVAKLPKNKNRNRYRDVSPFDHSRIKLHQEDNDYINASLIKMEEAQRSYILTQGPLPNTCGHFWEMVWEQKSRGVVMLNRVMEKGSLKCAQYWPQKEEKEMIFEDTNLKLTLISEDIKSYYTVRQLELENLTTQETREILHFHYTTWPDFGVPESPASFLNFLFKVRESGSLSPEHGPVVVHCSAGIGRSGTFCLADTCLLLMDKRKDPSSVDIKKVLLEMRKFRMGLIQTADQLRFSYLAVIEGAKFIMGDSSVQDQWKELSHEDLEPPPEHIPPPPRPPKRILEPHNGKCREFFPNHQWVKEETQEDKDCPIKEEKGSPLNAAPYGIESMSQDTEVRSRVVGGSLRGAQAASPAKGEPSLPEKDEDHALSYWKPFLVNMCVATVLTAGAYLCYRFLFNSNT
- Method description: Inhibition of PTP1B (unknown origin) using pNPP as substrate pre-incubated with compound followed by substrate addition measured after 20 mins
pIC50: −log10 of the molar value.
Label rule, in plain words: pIC50 of 5 and up is True, under 5 is False.

Worked cases, answers included:
COC(=O)c1nc2c(-c3ccc(O)cc3)c(O)c(O)c(-c3ccc(O)cc3)c2s1	False
COc1ccc(-c2c(OC)c(O)c(-c3ccc(OC)cc3)c3scnc23)cc1	False
OCc1nc2c(-c3ccc(O)cc3)c(O)c(O)c(-c3ccc(O)cc3)c2s1	False
OCc1nc2c(-c3ccc(O)c(O)c3)c(O)c(O)c(-c3ccc(O)cc3)c2s1	False
Nc1nc2c(s1)c(-c1ccc(O)cc1)c(O)c1oc3cc(O)c(O)cc3c12	True

Item CCOC(=O)c1nc2c(-c3ccc(O)c(O)c3)c(O)c(O)c(-c3ccc(O)cc3)c2s1 with pIC50 of 5 or above?
False

Item Oc1ccc(-c2c(O)c(O)c(-c3ccc(O)c(O)c3)c3ncsc23)cc1 with pIC50 of 5 or above?
True

Item CCOC(=O)c1nc2c(-c3ccc(O)cc3)c(O)c(O)c(-c3ccc(O)cc3)c2s1 with pIC50 of 5 or above?
False

Item Nc1nc2c(s1)=C(c1ccc(O)cc1)C(=O)C(=O)C=2c1ccc(O)cc1 with pIC50 of 5 or above?
False
